Molecular target: human 5-HT3 serotonin receptors (Homo sapiens)
Sequence (P46098 24-478): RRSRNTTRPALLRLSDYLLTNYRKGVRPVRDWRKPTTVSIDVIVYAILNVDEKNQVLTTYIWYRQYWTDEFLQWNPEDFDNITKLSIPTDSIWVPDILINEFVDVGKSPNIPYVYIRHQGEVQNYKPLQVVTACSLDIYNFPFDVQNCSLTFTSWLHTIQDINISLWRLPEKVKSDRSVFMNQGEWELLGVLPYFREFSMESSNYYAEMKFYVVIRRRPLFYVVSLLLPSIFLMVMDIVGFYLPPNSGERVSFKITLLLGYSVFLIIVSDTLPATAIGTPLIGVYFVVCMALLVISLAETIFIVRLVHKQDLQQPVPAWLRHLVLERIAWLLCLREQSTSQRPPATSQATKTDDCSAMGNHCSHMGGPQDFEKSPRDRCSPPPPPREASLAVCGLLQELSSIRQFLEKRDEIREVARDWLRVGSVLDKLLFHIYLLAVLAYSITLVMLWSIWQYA
Experiment: biochemical
Assay type: binding
Conditions: CHO cell membranes expressing human 5-HT3 receptors, [3H]BRL 43694, 120 min at room temperature; read-out: h-5HT3 Ki
pKi: −log10 of the molar value. Where a name gives a salt, the structure may show the parent alone.
Listed next: entries and their corresponding pKi.

The cases that follow already have their pKi on record.
molecule	pKi
FC(F)(F)c1ccc2cnc(NC3=NO[C@@]4(C3)CN3CCC4CC3)cc2c1 [(R)-83, hydrochloride]	< 5.00
Fc1ccc2cnc(NC3=NO[C@@]4(C3)CN3CCC4CC3)cc2c1 [(R)-45, hydrochloride]	< 5.00
COc1ccc2cc(NC3=NO[C@@]4(C3)CN3CCC4CC3)ncc2c1 [(R)-46, hydrochloride]	< 5.00
Cc1ccc2cnc(NC3=NO[C@@]4(C3)CN3CCC4CC3)nc2c1 [(R)-71, hydrochloride]	5.19
Cc1cc2ccc(NC3=NO[C@@]4(C3)CN3CCC4CC3)cc2s1 [(R)-42, hydrochloride]	< 5.00
FC(F)(F)c1cc2ccc(NC3=NO[C@@]4(C3)CN3CCC4CC3)cc2s1 [(R)-67, hydrochloride]	< 5.00
c1cc2sc(NC3=NO[C@@]4(C3)CN3CCC4CC3)nc2cc1C1CC1 [(R)-26, hydrochloride]	5.51
Fc1ccc2sc(NC3=NO[C@@]4(C3)CN3CCC4CC3)nc2c1 [(R)-27, hydrochloride]	5.24
Clc1ccc2cnc(NC3=NO[C@@]4(C3)CN3CCC4CC3)cc2c1 [(R)-18, hydrochloride]	< 5.00

Next molecule, please.
Task: Enter reported pKi observed with human 5-HT3 serotonin receptors (Homo sapiens) for Cn1ncc2ccc(NC3=NO[C@@]4(C3)CN3CCC4CC3)cc21 [(R)-64, hydrochloride]
Result: < 5.00

====

Biological target: human α7 nAChR (Homo sapiens, UniProt P36544)
Sequence (P36544 23-502): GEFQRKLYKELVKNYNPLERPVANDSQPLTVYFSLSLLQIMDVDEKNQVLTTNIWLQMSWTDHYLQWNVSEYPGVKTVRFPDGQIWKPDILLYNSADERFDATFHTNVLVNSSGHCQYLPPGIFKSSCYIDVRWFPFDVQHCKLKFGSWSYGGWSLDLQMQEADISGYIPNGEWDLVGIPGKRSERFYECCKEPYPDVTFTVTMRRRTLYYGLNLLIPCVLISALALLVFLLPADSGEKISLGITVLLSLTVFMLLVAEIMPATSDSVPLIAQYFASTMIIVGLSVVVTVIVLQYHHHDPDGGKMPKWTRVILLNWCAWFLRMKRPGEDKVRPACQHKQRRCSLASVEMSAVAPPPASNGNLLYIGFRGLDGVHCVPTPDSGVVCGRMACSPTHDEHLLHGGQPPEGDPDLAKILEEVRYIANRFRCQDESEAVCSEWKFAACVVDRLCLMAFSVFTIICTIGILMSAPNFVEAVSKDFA
reported endpoint: Ki (nM)
The reply should contain only the number, in nM.

Task: Which Ki value belongs to Cc1ccc(-c2ccc(OC3CN4CCC3CC4)cn2)cc1 (stereo not shown) ?
Result: 255

====

Reported Ki is given for each of the following molecules.
Molecular target: human 5-HT3 serotonin receptors (Homo sapiens)
Test: biochemical
Format: binding
Structures can show the parent of a compound that is named as a salt.
Output spec: scalar in µM, unitless text.

molecule	target system	unit info	test result
c1ccc(NC2=NOC3(C2)CN2CCC3CC2)cc1 (single isomer, unassigned) [Compound 1-P1]	human 5-HT3 serotonin receptors (Homo sapiens)	µM	0.0084
Clc1cccc(NC2=NO[C@@]3(C2)CN2CCC3CC2)c1 [(R)-34, hydrochloride]	human 5-HT3 serotonin receptors (Homo sapiens)	µM	0.012

Continue with the molecule presented below.
Task: Would you mind telling me what Ki value was observed for Clc1coc2cc(NC3=NO[C@@]4(C3)CN3CCC4CC3)ccc12 [(R)-73-1, hydrochloride] ?
Result: 4.9

====

Molecular target: human 5-HT3 serotonin receptors (Homo sapiens)
Experiment: biochemical
Assay type: binding
Conditions: CHO cell membranes expressing human 5-HT3 receptors, [3H]BRL 43694, 120 min at room temperature; read-out: h-5HT3 Ki
pKi: −log10 of the molar value. Where a name gives a salt, the structure may show the parent alone.
// reported pKi per item

compound	pKi
COc1ccc2cnc(NC3=NO[C@@]4(C3)CN3CCC4CC3)cc2c1 [(R)-47, hydrochloride]	< 5.00
Clc1cc2ccc(NC3=NO[C@@]4(C3)CN3CCC4CC3)cc2s1 [(R)-54, hydrochloride]	< 5.00
Clc1ccc2cc(NC3=NO[C@@]4(C3)CN3CCC4CC3)ncc2c1 [(R)-19, hydrochloride]	< 5.00
Fc1cc2cnc(NC3=NO[C@@]4(C3)CN3CCC4CC3)cc2cc1Cl [(R)-81, hydrochloride]	< 5.00
Fc1c(Cl)sc2cc(NC3=NO[C@@]4(C3)CN3CCC4CC3)ccc12 [(R)-78, hydrochloride]	< 5.00
Clc1cccc2cnc(NC3=NO[C@@]4(C3)CN3CCC4CC3)cc12 [(R)-24, hydrochloride]	6.59
Clc1cc2ccc(NC3=NO[C@@]4(C3)CN3CCC4CC3)cc2o1 [(R)-63, hydrochloride]	< 5.00
Clc1csc2cc(NC3=NO[C@@]4(C3)CN3CCC4CC3)ccc12 [(R)-76, hydrochloride]	5.55
Cc1cc2cnc(NC3=NO[C@@]4(C3)CN3CCC4CC3)nc2o1 [(R)-75, hydrochloride]	< 5.00
c1ccc2nc(NC3=NO[C@@]4(C3)CN3CCC4CC3)ncc2c1 [(R)-22, hydrochloride]	5.28

Task: Which measured pKi value corresponds to Cc1ccc2cc(NC3=NO[C@@]4(C3)CN3CCC4CC3)ncc2c1 [(R)-59, hydrochloride] ?
Result: < 5.00

Task: # pKi lookup, item Cc1nc2ccc(NC3=NO[C@@]4(C3)CN3CCC4CC3)cc2s1 [(R)-50, hydrochloride]
Result: 5.21

Task: Item Cc1ccc2sc(NC3=NO[C@@]4(C3)CN3CCC4CC3)nc2c1 [(R)-25, hydrochloride] has what recorded pKi?
Result: 5.38

Task: Item under review: Clc1cccc2nc(NC3=NO[C@]4(C3)CN3CCC4CC3)sc12 [(S)-11] . Reported pKi?
Result: 6.89

Origin of the recorded values: patent US20170247393A1
